Origin of measurements: paper PMC5943153

Biological target: T1, T25-HP0221 (NifU) (Helicobacter pylori strain 26695, UniProt O25009 2-326)
T1 sequence (looked up): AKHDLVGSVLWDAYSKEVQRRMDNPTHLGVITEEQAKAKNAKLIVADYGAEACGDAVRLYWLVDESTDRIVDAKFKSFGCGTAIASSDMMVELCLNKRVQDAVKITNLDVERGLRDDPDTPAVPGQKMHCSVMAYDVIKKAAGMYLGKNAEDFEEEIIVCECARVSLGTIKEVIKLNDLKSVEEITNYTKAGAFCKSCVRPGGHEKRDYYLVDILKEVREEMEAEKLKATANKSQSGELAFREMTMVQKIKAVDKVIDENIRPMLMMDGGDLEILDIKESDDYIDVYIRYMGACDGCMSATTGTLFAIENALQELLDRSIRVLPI
Assay: two-hybrid
ENDPOINT LABEL: growth OD595 in M63-maltose
Numeric answer plus unit only.

Worked examples follow.
Fill in the blank: the reported growth OD595 in M63-maltose of T18-HP0568 (natural protein, Helicobacter pylori strain 26695, UniProt O25292 2-255, looked up) PLELFEKVCKEVAPLTQMITLHVLGDPCKLKNLNHYLSTARRFSLKVDLVTSGVYLHDFETLLQDVIYQISISLDAGLDHRNKLNQHRYIQKILEFCRYKCEKNSEVFLNLRIQDSTLDKHQNLIKPFLESFECVSLEGLKTQGRARLFKKSFLNIQKTFKWPSLNAQNPLNQKSKIPYCYGLIKQIAILSNGVVVPCCMDTQANISLGDLNHTPLKDVLKSQKAMAIKTHFLKGEALELLCQNCSYPLIRYKK is ____.
0.13 OD595

Recorded growth OD595 in M63-maltose for T18-HP0585 (natural protein, Helicobacter pylori strain 26695, UniProt O25307 2-218, looked up) KMGLKRAKTHQKAQQIKELLLKHYPNQTTELRHKNPYELLVATILSAQCTDARVNQITPKLFEKYPSVNDLALASLEEVKEIIKSVSYFNNKSKHLISMAQKVVRDFKGVIPSTQKELMSLDGVGQKTANVVLSVCFDANCIAVDTHVFRATHRLGLSNAKDPIKTEEELSDLFKDNLSKLHHALILFGRYTCKAKNPLCGACFLKEFCVSKASFKA , please?
0.21 OD595

For the binder T18-HP0656 (natural protein, Helicobacter pylori strain 26695, UniProt O25370 2-383, looked up) ARNVKGYASTLTWTITRNTLNFLWEQGFKMRINREEILDLMKNAPLKELGQRALRVKQRLHPENLTTFIVDRNINYTNICFVDCKFCAFKRTLKEKDAYVLSYEEIDQKIEELLAIGGTQILFQGGVHPQLKIDYYENLVSHIAQKFPTITIHGFSAVEIDYISKISKLSLKEVLERLKNAGLSSIPGAGAEVLSDRVRDVIAPKKLSSDRWIEVHRMAHLCGIKSTATMMFGSVDNEEDVVEHLQRVRDLQDETGGFRAFILWSFQPNNTPLKEEIPSIKKASSNRYLRYLACSRIFLDNIQNIQSSWVTQGSMIGQLALLFGANDLGSVMMEENVVKAAGTSFCMNEAGMIELIEDIGSVAAKRNTAYEILKRYPAKAKV , what growth OD595 in M63-maltose is on record?
0.13 OD595

Turning to the following binder.
Consider the binder T18-HP1428 (natural protein, Helicobacter pylori strain 26695, UniProt O25970 2-357, looked up) KASIYDFTLKELSQLLKPSFRAKQLYLWLYAKYKTSFKDMQNNFSKDFIAYLEREFALRTIEITHVRESVDGSKKYLFKSLRDNHTFEAVLLKMKDKKIDAETNAILEREKYTVCVSCQIGCQVGCSFCFTQKGGFVRNLKASEIIQQALLIKEDNNLPLEKALNIVFMGMGEPLNNLDEVCKAIEIFNTGMQISPKRITISTSGVADKIPILAGKNLGVQLAISLHAVDDKTRSSLMPLNKKYNIECVLNEVRKWPLEQRKRVMFEYLLIKDLNDSLDCAKKLLKLLNGIKSKVNLILFNPHEGSKFERPSLENARMFADFLNSKGLLCTIRESKALDIEAACGQLREKKLSQQI and give its measured growth OD595 in M63-maltose.
0.15 OD595
